// provenance: ChEMBL document CHEMBL4004812

Tested on: Human gammaherpesvirus 4
assay_protocol: Inhibition of TPA/sodium butyrate-induced EBV lytic DNA replication in human P3HR1 cells incubated for 48 hrs post TPA/sodium butyrate induction by real-time PCR method
Assay type: functional, cell-based
assay_setup: human gammaherpesvirus 4, P3HR-1, 48 h

compound_structure	tgt	IC50
C=CC(C)(C)c1cc2cc3c(cc2oc1=O)O[C@@H](C(C)(C)OC(C)=O)C3	Human gammaherpesvirus 4	13.8 µM
C=CC(C)(C)c1cc2cc3c(cc2oc1=O)O[C@@H](C(C)(C)OC(=O)OCCN1C(=O)c2ccccc2C1=O)C3	Human gammaherpesvirus 4	0.83 µM
C=CC(C)(C)c1cc2cc3c(cc2oc1=O)O[C@@H](C(C)(C)OC(=O)c1ccccc1)C3	Human gammaherpesvirus 4	4.5 µM

----------
Below, each entry is listed with its recorded CC50 at 48 h.
assay_protocol: Cytotoxicity against human P3HR1 cells assessed as decrease in cell viability after 2 days by trypan blue staining-based light microscopic method
Parameters: species or system P3HR-1
assay_setup: P3HR1 cells
reported_metric: CC50 at 48 h (µM)

compound_structure	comparator	recorded_value
C=CC(C)(C)c1cc2cc3c(cc2oc1=O)O[C@@H](C(C)(C)OC(=O)OCCN1C(=O)c2ccccc2C1=O)C3	>	100
C=CC(C)(C)c1cc2cc3c(cc2oc1=O)O[C@H](C(C)(C)OC(C)=O)C3	>	150
C=CC(C)(C)c1cc2cc3c(cc2oc1=O)O[C@@H](C(C)(C)OC(=O)c1ccccc1)C3	=	370
C=CC(C)(C)c1cc2cc3c(cc2oc1=O)O[C@@H](C(C)(C)OC(=O)OCCc1ccncc1)C3	=	67.6
C=CC(C)(C)c1cc2cc3c(cc2oc1=O)O[C@@H](C(C)(C)OC(=O)OCCc1ccc(CC)cn1)C3	=	1200
C=CC(C)(C)c1cc2cc3c(cc2oc1=O)O[C@@H](C(C)(C)OC(=O)CNC1CCCC1)C3	=	40.8
C=CC(C)(C)c1cc2cc3c(cc2oc1=O)O[C@@H](C(C)(C)OC(=O)OCCc1ccccn1)C3	=	42.7
C=CC(C)(C)c1cc2cc3c(cc2oc1=O)O[C@@H](C(C)(C)OC(=O)C=C(C)C)C3	>	100
C=CC(C)(C)c1cc2cc3c(cc2oc1=O)O[C@@H](C(C)(C)OC(C)=O)C3	>	140
C=CC(C)(C)c1cc2cc3c(cc2oc1=O)O[C@@H](C(C)(C)OC(=O)CNCCc1ccc(F)cc1)C3	=	42.6

----------
Tested on: Human gammaherpesvirus 4
assay_protocol: Inhibition of TPA/sodium butyrate-induced EBV lytic DNA replication in human P3HR1 cells incubated for 48 hrs post TPA/sodium butyrate induction by real-time PCR method
Format: functional, cell-based
assay_setup: human gammaherpesvirus 4, P3HR-1, 48 h
pIC50: −log10 of the molar value.
reported_metric: pIC50

compound_structure	recorded_value
C=CC(C)(C)c1cc2cc3c(cc2oc1=O)O[C@@H](C(C)(C)OC(=O)OCCc1ccccn1)C3	5.21
C=CC(C)(C)c1cc2cc3c(cc2oc1=O)O[C@@H](C(C)(C)OC(=O)OCCc1ccncc1)C3	6.49
C=CC(C)(C)c1cc2cc3c(cc2oc1=O)O[C@@H](C(C)(C)OC(=O)CNCCc1ccc(F)cc1)C3	6.12
C=CC(C)(C)c1cc2cc3c(cc2oc1=O)O[C@@H](C(C)(C)OC(=O)OCCc1ccc(CC)cn1)C3	5.82
C=CC(C)(C)c1cc2cc3c(cc2oc1=O)O[C@@H](C(C)(C)O)C3	4.16
C=CC(C)(C)c1cc2cc3c(cc2oc1=O)O[C@@H](C(C)(C)OC(=O)NCCc1ccc(F)cc1)C3	5.85
C=CC(C)(C)c1cc2cc3c(cc2oc1=O)O[C@@H](C(C)(C)OC(=O)CNC1CCCC1)C3	5.70
C=CC(C)(C)c1cc2cc3c(cc2oc1=O)O[C@H](C(C)(C)OC(C)=O)C3	5.15
C=CC(C)(C)c1cc2cc3c(cc2oc1=O)O[C@@H](C(C)(C)OC(=O)C=C(C)C)C3	5.68
